Quick list: pIC50 per entry.
targetOfAssay: Delta-type opioid receptor (Mus musculus, UniProt P32300)
Sequence (P32300 whole entry): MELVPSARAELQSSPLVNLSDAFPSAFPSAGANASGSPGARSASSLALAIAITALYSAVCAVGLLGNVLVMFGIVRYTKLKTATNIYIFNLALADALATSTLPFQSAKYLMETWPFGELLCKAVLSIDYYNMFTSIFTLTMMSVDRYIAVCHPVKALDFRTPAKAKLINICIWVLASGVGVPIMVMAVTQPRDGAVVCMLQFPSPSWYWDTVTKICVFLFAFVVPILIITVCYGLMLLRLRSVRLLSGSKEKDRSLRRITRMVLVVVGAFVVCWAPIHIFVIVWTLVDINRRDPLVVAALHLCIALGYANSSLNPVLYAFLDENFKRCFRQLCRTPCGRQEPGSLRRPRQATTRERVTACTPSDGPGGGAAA
experimentNotes: Agonist activity at delta opioid receptor in mouse vas deferens assessed as inhibition of electrically-stimulated muscle contraction
Where a SMILES comes first, the peptide text is derived from it. [ ]: non-standard residue; d: D form. Dmt = Cc1cc(O)cc(C)c1C[C@H](N)C(=O)O
To interpret pIC50, take it as minus log10 of a concentration measured in moles per litre.

Consider the worked cases shown below.
>>> resultnumber("CCc1cccc(C)c1C[C@H](NC(=O)[C@@H]1CCCN1C(=O)[C@@H](N)Cc1c(C)cc(O)cc1C)C(=O)N[C@@H](Cc1ccccc1)C(N)=O")
9.29
>>> resultnumber("Cc1cc(O)cc(C)c1C[C@H](N)C(=O)N1CCC[C@H]1C(=O)N[C@@H](Cc1c(C)cccc1C(C)C)C(=O)N[C@@H](Cc1ccccc1)C(N)=O")
8.25
>>> resultnumber("Cc1ccccc1C[C@H](NC(=O)[C@@H]1CCCN1C(=O)[C@@H](N)Cc1ccc(O)cc1)C(=O)N[C@@H](Cc1ccccc1)C(N)=O")
7.80
>>> resultnumber("Cc1cc(O)cc(C)c1C[C@H](NC(=O)[C@@H]1CCCN1C(=O)[C@@H](N)Cc1ccc(O)cc1)C(=O)N[C@@H](Cc1ccccc1)C(N)=O (H-YP[Dmt]F-NH2)")
6.01
>>> resultnumber("Cc1cc(O)cc(C)c1C[C@H](N)C(=O)N1CCC[C@H]1C(=O)N[C@@H](Cc1ccccc1)C(=O)N[C@@H](Cc1ccccc1)C(N)=O")
9.23

Query: Request the reported pIC50 associated with CCc1cccc(C)c1C[C@H](NC(=O)[C@@H]1CCCN1C(=O)[C@@H](N)Cc1ccc(O)cc1)C(=O)N[C@@H](Cc1ccccc1)C(N)=O
Reply: 6.56

Query: Query (compound): Cc1cccc(C)c1C[C@H](NC(=O)[C@@H]1CCCN1C(=O)[C@@H](N)Cc1ccc(O)cc1)C(=O)N[C@@H](Cc1ccccc1)C(N)=O ; field requested: pIC50
Reply: 8.86
